tested on: Escherichia coli TOP10; test: shrunken log2 fold change of peptide-encoding DNA abundance (4.5 h post-induction vs induction); higher = less antimicrobial activity (less host growth inhibition); details: time post-induction: 4.5 h; library: site-saturation at positions 5, 18, 19, 20;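 further: peptides expressed intracellularly from a pBAD plasmid library in pooled LB shake-flask culture, induced with 0.3% L-arabinose, DNA abundance read by NGS, three biological replicates, DESeq2 with apeglm shrinkage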
Value Kind: shrunken log2 fold change

• RRIRIRPPRLPRPRPRPDDHPRP = 0.07
• RRIRARPPRLPRPRPRPLEFPRP = 0.231
• RRIRHRPPRLPRPRPRPDWSPRP = 0.00911
• RRIRERPPRLPRPRPRPVQWPRP = 0.149
• RRIRCRPPRLPRPRPRPYNWPRP = -0.917
• RRIRPRPPRLPRPRPRPFANPRP = -0.0686
• RRIRERPPRLPRPRPRPLFNPRP = -0.62
• RRIRHRPPRLPRPRPRPTDSPRP = 0.0894
